targetEntity: hGLP-1R (Homo sapiens, UniProt P43220)
Sequence (P43220 24-463): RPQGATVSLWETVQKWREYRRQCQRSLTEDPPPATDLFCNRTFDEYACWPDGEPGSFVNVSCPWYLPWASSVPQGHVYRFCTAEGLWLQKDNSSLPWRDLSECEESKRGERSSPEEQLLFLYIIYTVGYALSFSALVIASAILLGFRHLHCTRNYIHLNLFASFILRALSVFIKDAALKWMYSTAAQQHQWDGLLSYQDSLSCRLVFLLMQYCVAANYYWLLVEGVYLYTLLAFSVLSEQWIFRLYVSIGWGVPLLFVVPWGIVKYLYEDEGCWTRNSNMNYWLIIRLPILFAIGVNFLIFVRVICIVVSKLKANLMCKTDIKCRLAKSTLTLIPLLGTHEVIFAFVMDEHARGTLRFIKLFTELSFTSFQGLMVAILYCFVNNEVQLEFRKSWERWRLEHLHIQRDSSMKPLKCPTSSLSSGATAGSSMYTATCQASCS
assayText: cell-based or functional assay
Lab note: compare Relative cAMP EC50 against 0.8 nM. Equal or greater, write rule met. Smaller, write rule not met.

binder	label
YXQGTFTSDXSKXLDKKAQXAFIEYLIEXGPSSGAPPPSGSE (synthetic construct; SITE 2: note = 2-Aminoisobutyric Acid; SITE 10: note = 3-(4-Pyridyl)-L-alanine; SITE 13: note = alpha-methyl-leucine; SITE 17: note = Lysine is chemically modified through conjugation of the epsilon-amino group of the Lysine side chain with (2-[2-(2-Amino-ethoxy)-ethoxy]-acetyl)) [Example 901]	rule met
YXQGTXTSDXXIXLDXKAQXEFIEXLIEGGPPSXXPPPXGS (non-natural residues, C-terminal amide, acylated Lys with fatty diacid; synthetic construct; SITE 2: note = 2-Aminoisobutyric Acid; SITE 6: note = alpha-methyl-2-fluoro-L-phenylalanine; SITE 10: note = 3-(4-Pyridyl)-L-alanine; SITE 11: note = alpha-methyl-L-serine; SITE 13: note = alpha-methyl-leucine; SITE 16: note = L-ornithine; SITE 17: note = Lysine is chemically mo) [Example 1189]	rule not met
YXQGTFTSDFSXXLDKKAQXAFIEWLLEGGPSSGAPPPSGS (synthetic construct; SITE 2: note = 2-Aminoisobutyric Acid; SITE 12: note = L-ornithine; SITE 13: note = alpha-methyl-leucine; SITE 17: note = Lysine is chemically modified through conjugation of the epsilon-amino group of the Lysine side chain with (2-[2-(2-Amino-ethoxy)-ethoxy]-acetyl)-(gamma-Glu)) [Example 78]	rule met
YXQGTFTSDXSQXLDXKAQXAFIQXLIAXGPSSGEPPPSGGGE (Lys acylated γGlu-C18 diacid; non-natural residues; C-amide; synthetic construct; SITE 2: note = 2-Aminoisobutyric Acid; SITE 10: note = 3-(4-Pyridyl)-L-alanine; SITE 13: note = alpha-methyl-leucine; SITE 16: note = L-ornithine; SITE 17: note = Lysine is chemically modified through conjugation of the epsilon-amino group of the Lysine side chain with D-Glutami) [Example 1130]	rule not met
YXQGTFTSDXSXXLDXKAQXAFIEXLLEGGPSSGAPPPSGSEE (non-natural residues, Glu-γGlu-C18 diacid acylation, C-terminal amide; synthetic construct; SITE 2: note = 2-Aminoisobutyric Acid; SITE 10: note = 3-(4-Pyridyl)-L-alanine; SITE 12: note = L-ornithine; SITE 13: note = alpha-methyl-leucine; SITE 16: note = L-ornithine; SITE 17: note = Lysine is chemically modified through conjugation of the epsilon-amino group of the Lys) [Example 1066]	rule met

Sourced from patent US20240270821A1
